Test system: HCT-116 colon
experimental-details: NCI tumour cell line growth inhibition, 48 h
Below, each entry is listed with its recorded TGI.

# count of solved cases: 2
| compound | obs-value |
| --- | --- |
| Cc1ccc(-n2nnc3c(NNc4ccccc4)n[nH]c(=O)c32)cc1 | > 100 µM |
| COC(=O)C1=C(C(=O)OC)C2(c3ccccc3)c3ccccc3C(=O)C1N2C1CCCCC1 (stereo not drawn) | > 100 µM |

Reported TGI, compound C=CCN1C(=O)/C(=C/c2ccccc2)N=C1SC/C=C/C : ____
> 100 µM

====

System: HS 578T breast
experimental-details: NCI tumour cell line growth inhibition, 48 h
Recorded TGI, one value per entry.

Known results for compounds:
| compound | obs-value |
| --- | --- |
| COc1ccc(-c2c(C#N)c(N)n(C3OCC(O)C(O)C3O)c(=S)c2C#N)cc1 (stereo unspecified) | > 100 µM |
| Cc1c(C(=O)N/N=C/c2ccc(O)cc2)nnn1-c1ccnc2c(C(F)(F)F)cccc12 | > 100 µM |
| COC(=O)CC(SCCO)SCCO | > 100 µM |

So what's the measured TGI for this one? COc1ccc(OC)c2sc(N3C(=O)/C(=C/c4ccc(N(C)C)cc4)N=C3c3ccccc3)nc12
> 100 µM

Query (compound): CNc1nc2c(C)ccc3nc(N(C)C)nc-3c2n1C ; field requested: TGI
> 10 µM

Data request, read-out TGI, for O=C1CSC2(CC(/C=C/c3cccc(Br)c3)=NN2c2cccc(S(=O)(=O)O)c2)N1c1nc2ccccc2s1 (stereo unspecified)
> 100 µM
